Source: ChEMBL document CHEMBL1153163

Target under test: D(2) dopamine receptor (Homo sapiens)
Sequence (P14416 whole entry): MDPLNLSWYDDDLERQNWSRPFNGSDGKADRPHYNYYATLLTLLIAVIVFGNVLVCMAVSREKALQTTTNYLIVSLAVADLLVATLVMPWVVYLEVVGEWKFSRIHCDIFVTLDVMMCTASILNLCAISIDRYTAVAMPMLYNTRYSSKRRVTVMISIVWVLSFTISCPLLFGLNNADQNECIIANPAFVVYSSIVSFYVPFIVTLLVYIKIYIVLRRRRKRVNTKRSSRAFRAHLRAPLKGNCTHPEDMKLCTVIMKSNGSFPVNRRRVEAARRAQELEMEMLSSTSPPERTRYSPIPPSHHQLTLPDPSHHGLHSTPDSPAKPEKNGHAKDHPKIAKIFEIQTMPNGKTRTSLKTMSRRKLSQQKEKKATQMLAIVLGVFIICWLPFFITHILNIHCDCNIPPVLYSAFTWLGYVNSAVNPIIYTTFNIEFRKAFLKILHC
Procedure text: Displacement of [3H]Spiperone from human recombinant dopamine D2S receptor expressed in CHO cells
Measure name: Ki
Please format your answer as a value with the unit trailing.

* Cc1ccc2c(c1)c1c(n2CCc2ccccc2)CCN(C)C1 | 85.1 nM

As a next step, examine the compound that follows.
**Q:** Endpoint output: Ki of Cc1ccc2c(c1)c1c(n2/C=C\c2ccccc2)CCN(C)C1 . Value?
**A:** 34.7 nM

====

Listing: pKi of selected molecules
Target under test: UniProt:P28223
Procedure text: Displacement of [3H]Ketanserin from human recombinant 5HT2A receptor expressed in CHO-K1 cells
Remember the convention: pKi equals -log10 of concentration in molar.

Field: example entries. Status: answers known.
* Cc1ccc2c(c1)c1c(n2CCc2ccc(C)nc2)CCN(C)C1 [LATREPIRDINE] | 7.21
* Cc1ccc(CCn2c3c(c4cc(C)ccc42)CN(C)CC3)cc1 | 8.96
* Cc1ccc2c(c1)c1c(n2CCc2ccccc2)CCN(C)C1 [MARITUPIRDINE] | 8.70

As a next step, examine the molecule that follows.
**Q:** Endpoint output: pKi of Cc1ccc2c(c1)c1c(n2/C=C\c2ccccc2)CCN(C)C1 . Value?
**A:** 9.00

====

Listing: pIC50 of selected compounds
Target under test: Histamine H1 receptor (Homo sapiens)
Sequence (P35367 whole entry): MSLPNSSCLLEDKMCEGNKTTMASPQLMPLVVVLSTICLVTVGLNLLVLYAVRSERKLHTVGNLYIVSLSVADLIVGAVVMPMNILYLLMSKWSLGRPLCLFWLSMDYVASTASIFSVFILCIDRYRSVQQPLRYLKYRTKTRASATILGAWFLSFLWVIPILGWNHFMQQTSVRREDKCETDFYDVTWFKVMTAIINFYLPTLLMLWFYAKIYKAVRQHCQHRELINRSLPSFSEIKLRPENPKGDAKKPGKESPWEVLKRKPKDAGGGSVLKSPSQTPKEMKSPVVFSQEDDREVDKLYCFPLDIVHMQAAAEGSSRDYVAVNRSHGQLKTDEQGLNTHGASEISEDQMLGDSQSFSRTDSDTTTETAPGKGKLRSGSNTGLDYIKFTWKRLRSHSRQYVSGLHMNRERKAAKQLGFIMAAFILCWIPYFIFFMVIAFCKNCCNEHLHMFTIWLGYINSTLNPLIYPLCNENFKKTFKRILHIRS
Procedure text: Antagonist activity at histamine H1 receptor in human SK-N-SH cells assessed as histamine-induced maximum intracellular calcium spike at phase 1 treated 15 to 20 seconds before histamine challenge
Remember the convention: pIC50 equals -log10 of concentration in molar.

Field: example entries. Status: answers known.
* CN1CCc2c(c3cc(C(F)(F)F)ccc3n2CCc2ccccc2)C1 | 7.17
* CN1CCc2c(c3cc(F)ccc3n2CCc2ccc(C(F)(F)F)cc2)C1 | 7.46
* COc1ccc(CCn2c3c(c4cc(C)ccc42)CN(C)CC3)cc1 | 7.18
* COc1ccc(CCn2c3c(c4cc(F)ccc42)CN(C)CC3)cc1 | 7.49
* CN1CCc2c(c3ccccc3n2/C=C\c2ccccc2)C1 | 7.48
* Cc1ccc2c(c1)c1c(n2CCc2ccc(F)cc2)CCN(C)C1 | 7.52

**Q:** Endpoint output: pIC50 of Cc1ccc(CCn2c3c(c4cc(F)ccc42)CN(C)CC3)cc1 . Value?
**A:** 7.51

**Q:** Endpoint output: pIC50 of Cc1ccc(CCn2c3c(c4cc(C)ccc42)CN(C)CC3)cc1 . Value?
**A:** 6.95

**Q:** Endpoint output: pIC50 of Cc1ccc2c(c1)c1c(n2CCc2ccc(C)nc2)CCN(C)C1 [LATREPIRDINE] . Value?
**A:** 6.80

**Q:** Endpoint output: pIC50 of CN1CCc2c(c3ccccc3n2/C=C/c2ccccc2)C1 . Value?
**A:** 6.46

**Q:** Endpoint output: pIC50 of COc1ccc2c(c1)c1c(n2CCc2ccccc2)CCN(C)C1 . Value?
**A:** 6.98

====

Target under test: 5-hydroxytryptamine receptor 6 (Homo sapiens, UniProt P50406)
Sequence (P50406 whole entry): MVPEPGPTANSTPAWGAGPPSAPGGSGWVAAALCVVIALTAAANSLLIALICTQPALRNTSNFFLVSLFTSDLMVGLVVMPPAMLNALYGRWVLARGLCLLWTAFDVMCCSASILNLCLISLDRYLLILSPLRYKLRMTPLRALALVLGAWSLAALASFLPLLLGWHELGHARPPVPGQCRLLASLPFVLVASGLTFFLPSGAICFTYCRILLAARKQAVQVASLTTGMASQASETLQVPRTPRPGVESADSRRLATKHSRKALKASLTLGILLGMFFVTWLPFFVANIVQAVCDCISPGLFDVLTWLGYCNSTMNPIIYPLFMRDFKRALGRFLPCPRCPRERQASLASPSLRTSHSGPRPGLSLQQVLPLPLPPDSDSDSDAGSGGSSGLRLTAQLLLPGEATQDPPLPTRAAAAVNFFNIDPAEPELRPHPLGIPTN
Procedure text: Antagonist activity at human recombinant 5HT6 receptor expressed in HEK293 cells assessed as inhibition of serotonin-induced increase in intracellular cAMP level by cAMP-LANCE method
Listing: pIC50 of selected compounds
Remember the convention: pIC50 equals -log10 of concentration in molar.

* COc1ccc(CCn2c3c(c4cc(C)ccc42)CN(C)CC3)cc1 | 6.18

**Q:** Endpoint output: pIC50 of C/C(=C/c1ccccc1)n1c2c(c3cc(F)ccc31)CN(C)CC2 . Value?
**A:** 5.43

**Q:** Endpoint output: pIC50 of COc1ccc(CCn2c3c(c4cc(F)ccc42)CN(C)CC3)cc1 . Value?
**A:** 5.63
